Assay: growth inhibitors of H69AR lung tumor, primary screen, human, duplicate replicates (AID 580);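 note: 100% = mean luminescence of untreated wells and 0% = no signal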
Conditions: H69AR lung tumor cells viability, ATP luminescence, 72 h; at 10 µM; active compounds read low
Please go through the items and note down their viability.
Numbers only, in %.

Task: Suppose we examine the compound COc1cccc(OC)c1C(=O)N1CCOCC1 ; what viability value has been reported?
Output: 100

Task: Suppose we examine the compound COc1cccc(NC(=O)C2C3C=CC4(O3)C2C(=O)N(C(C)C)C4C(=O)NC2CCCCC2C)c1 (centres undefined) ; what viability value has been reported?
Output: 96.9

Working through the 7 compounds below one at a time, give viability for each.
1. CCc1nnc(-n2nc(C)cc2-c2ccccc2)n1N
2. C=CCn1c(SCc2cc(=O)n3ccsc3n2)nnc1C1CCCCC1
3. CCCNC(=O)c1cc(S(=O)(=O)N2CCc3ccccc32)ccc1F
4. O=C(CN1CCN(c2ccccn2)CC1)N1c2ccccc2CCc2ccccc21
5. Clc1ccc2c(c1)C(N1CCNCC1)=Nc1ccccc1O2
6. CCOC(=O)C1CCN(S(=O)(=O)c2cccc(-c3csc(C)n3)c2)CC1
7. O=C(COC(=O)CCOc1ccccc1)Nc1ccc(Cl)cn1

Output:
1. 93.5
2. 96.7
3. 97
4. 107
5. 84.4
6. 90.4
7. 91

Working through the 2 compounds below one at a time, give viability for each.
1. O=C(NCc1cccnc1)/C(=N\O)c1ccccc1
2. O=C(CCC1COc2ccccc2O1)NCC1COc2ccccc2O1 (centres undefined)

Output:
[98.8, 87.8]

Working through the 7 compounds below one at a time, give viability for each.
1. CCCCN(CCCNC(=O)C1CCN(S(=O)(=O)CC)CC1)c1ccccc1
2. Cc1ccc(Nc2cc(C)nc3nnnn23)cc1
3. FC(F)Oc1cccc2cccnc12
4. COc1ccc(Nc2ncc3c(n2)CC(c2ccc(OC)cc2)CC3=O)cc1 (centres undefined)
5. C=C(C)COc1ccc(-c2n[nH]c(C)c2-c2ccccc2)c(O)c1
6. COc1cccc(-n2c(C)nc3c(cnn3-c3ccc(Cl)cc3)c2=O)c1
7. CC(C)CC(=O)N1CCN(S(=O)(=O)c2ccc(F)cc2)CC1

Output:
1: 96.6; 2: 93.4; 3: 94; 4: 97.4; 5: 21.1; 6: 76.3; 7: 94.9

Working through the 6 compounds below one at a time, give viability for each.
1. Cc1cccc2cc(C#N)c(SCCN3CCCCC3)nc12
2. N/C(=N/O)c1nc(N2CCCCC2)nc(N2CCCCC2)n1
3. CN(C)CCCOC(=O)CCc1ccccc1
4. CCn1c(CCC(=O)Nc2nc3c(s2)CCCC3)nc2cc(S(=O)(=O)N(C)C)ccc21
5. Oc1ccc(/C=C/c2cc(O)cc(O)c2)cc1
6. O=C(Nc1cccc2c1CCCC2)C1CCN(c2nnnn2-c2ccccc2)CC1

Output:
1. 68.2
2. 94.9
3. 96.3
4. 85.4
5. 76.9
6. 89.2
